Biological target: OsSMF1 (Oryza sativa, UniProt Q6ZLB0 1-436)
Sequence: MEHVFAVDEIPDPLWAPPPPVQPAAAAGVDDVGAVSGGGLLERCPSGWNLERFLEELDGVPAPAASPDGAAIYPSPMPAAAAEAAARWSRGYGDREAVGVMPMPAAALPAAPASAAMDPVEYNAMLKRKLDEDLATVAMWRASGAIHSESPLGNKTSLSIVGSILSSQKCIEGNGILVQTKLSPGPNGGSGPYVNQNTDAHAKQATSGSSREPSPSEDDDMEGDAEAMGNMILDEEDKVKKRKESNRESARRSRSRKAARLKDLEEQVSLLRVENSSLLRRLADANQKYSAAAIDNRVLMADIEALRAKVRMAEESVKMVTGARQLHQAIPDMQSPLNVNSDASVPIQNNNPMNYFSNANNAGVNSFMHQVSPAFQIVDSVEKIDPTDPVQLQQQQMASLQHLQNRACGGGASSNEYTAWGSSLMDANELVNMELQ
Test: protein-binding microarray (RPBM); PBS, 2% BSA, 51.3 ng/ul salmon testes DNA, 50 uM zinc acetate, 200 nM TF, 25 C, 1 h; high values mean tight binding
Settings: protein: recombinant; tags: N-terminal polyhistidine and DsRed monomer fusion (pET32a); chain copies: 2; label: CyDye5-dUTP incorporated in the synthesized complementary strand; 3' TTTTT single-stranded linker to array surface; dsDNA, one strand shown
Whole data set: some 39,000 sequences, median “fluorescence intensity (a.u.)” near 4,300, cut for the highest 2% near 39,000. Many of the other results were omitted from the sample, so the highest values are more common in it than they were.
Endpoint: binding signal

Reference set, count: 3
GET /values?readout=binding signal&item= CACAGTCGACGACACCCTCCATCTCCGTCCCTCCCACTCCCGGAGTCACCTAGTGCAG
7160 fluorescence intensity (a.u.)

GET /values?readout=binding signal&item= TGTTTGTATAATTTTGAGTTATCAACAGTCGCGATGGAGACGGAGTCACCTAGTGCAG
24900 fluorescence intensity (a.u.)

GET /values?readout=binding signal&item= GGGTGAAGCGTCGCGCGGCGCGCCGTGGCGTGGCGTGGCGCGGAGTCACCTAGTGCAG
6090 fluorescence intensity (a.u.)

Others:
GET /values?readout=binding signal&item= GCTCGCCGGCCTCACCCTCAATACATGGTGATTCATCCGGCGGAGTCACCTAGTGCAG
3660 fluorescence intensity (a.u.)

GET /values?readout=binding signal&item= AGCTCGTGACGTTAATCTCCGTATAACCAAGCCATGTTGTCGGAGTCACCTAGTGCAG
6620 fluorescence intensity (a.u.)

GET /values?readout=binding signal&item= CTTCTAGCTGACACCTGTGCGCCGCCGCCTAATTTCAACTCGGAGTCACCTAGTGCAG
3930 fluorescence intensity (a.u.)

GET /values?readout=binding signal&item= GACTAACAAAATCGTTGAAACTTGCGAAGTTTCTTTTGATCGGAGTCACCTAGTGCAG
64700 fluorescence intensity (a.u.)

GET /values?readout=binding signal&item= AGAGCCGAGGCCCGAATTCCTCCGGTCCTCCTCGTGACCCCGGAGTCACCTAGTGCAG
15400 fluorescence intensity (a.u.)

GET /values?readout=binding signal&item= CGCGCGAGTGCTAGGAAGCTGAGTCACGCCCGCCCTCCTCCGGAGTCACCTAGTGCAG
10700 fluorescence intensity (a.u.)

GET /values?readout=binding signal&item= GACCCAGCAAGCAAGAGCGTCTAGTCACCTCAACCACGAACGGAGTCACCTAGTGCAG
6180 fluorescence intensity (a.u.)

GET /values?readout=binding signal&item= ACAAACTTTGTATACGTGTATAAAATATTGATATATGTACCGGAGTCACCTAGTGCAG
4410 fluorescence intensity (a.u.)

GET /values?readout=binding signal&item= AGAAAATGTGGAATGACGCAAATGCCCTTCTGCCTCCTCGCGGAGTCACCTAGTGCAG
5440 fluorescence intensity (a.u.)

GET /values?readout=binding signal&item= CATTCCTCTCTTTCCCCTCATCCCTATAAATCCAACATTTCGGAGTCACCTAGTGCAG
3440 fluorescence intensity (a.u.)

GET /values?readout=binding signal&item= GGTCCACCCGAATCGGAGTCAGCCAGCCAAGCCACCTAATCGGAGTCACCTAGTGCAG
4780 fluorescence intensity (a.u.)

GET /values?readout=binding signal&item= CGCGGCGCGCACACGCCATGCCGGCATGCCGTGGCATACCCGGAGTCACCTAGTGCAG
3990 fluorescence intensity (a.u.)

GET /values?readout=binding signal&item= TTAGTTGTTCTTGTTCTCTTGGTTGGGACGTGGAGAGTTGCGGAGTCACCTAGTGCAG
3440 fluorescence intensity (a.u.)
